targetUnderTest: recombinant eIF4E (Homo sapiens (Human), UniProt P06730)
Sequence (P06730 whole entry): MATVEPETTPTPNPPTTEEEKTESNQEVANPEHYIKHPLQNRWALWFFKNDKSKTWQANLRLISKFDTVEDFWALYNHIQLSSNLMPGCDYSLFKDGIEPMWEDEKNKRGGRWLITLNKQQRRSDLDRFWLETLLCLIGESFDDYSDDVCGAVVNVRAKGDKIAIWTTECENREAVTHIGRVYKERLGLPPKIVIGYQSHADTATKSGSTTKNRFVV
experimentNotes: Fluorescence polarization competition assay for eIF4E binding potency
conditionDetails: inhibition of eIF4E/EDA-m7GDP-ATTO-550 binding; calculated IC50 values, Table 4B; read-out: IC50
reportedProperty: IC50 (nM)

Some solved cases for reference:
compound	IC50, nM
Cc1csc2c(-c3cc(Cl)ccc3OCCn3c(C)nc4cc(C(F)(F)F)c(N5CCN(C)CC5)c(C#N)c4c3=O)ccnc12 [compound 1249]	75.9
Cc1nc2cnc(N(C)C3CCN(CC(F)(F)F)CC3)c(C#N)c2c(=O)n1CC#Cc1ccc(Cl)cc1-c1ccnc2c(C(=O)NS(=O)(=O)c3ccc(F)cc3F)csc12 [compound 1550]	22.9
Cc1nc2cnc(N3CCN(C)C4(CC4)C3)c(C#N)c2c(=O)n1CCOc1ccc(Cl)cc1-c1ccnc2c(C(=O)O)csc12 [compound 1337]	51.9
Cc1nc2cnc(N3CCC(N(C)C4CC4)CC3)c(C#N)c2c(=O)n1CC#Cc1ccc(Cl)cc1-c1ccnc2c(C(=O)O)csc12 [compound 1527]	15.6

(I) Cc1cc(-c2cc(Cl)ccc2OCCn2c(C)nc3cc(C(F)(F)F)c(C4=CCN(C)CC4)c(C#N)c3c2=O)c2sc(C)c(C(=O)O)c2n1 [compound 1417]
(II) Cc1nc2cnc(N(C)C3CCN(C4(C)CC4)CC3)c(C#N)c2c(=O)n1CC#Cc1ccc(Cl)cc1-c1ccnc2c(C(=O)O)csc12 [compound 1524]
Between I and II , which one shows the smaller IC50 number? Selection: enter the item's label. II
(II: 12.5 nM, I: 24.9 nM)
